Tested on: Escherichia coli
assay-info: Antibacterial activity against Escherichia coli after 48 hrs by agar dilution method
Format: functional
parameter-measured: MIC (µg/mL)

smiles_representation=C=C[C@]1(C)C[C@@H](OC(=O)CSC(C)(C)CNC(=O)[C@H](N)C(C)C)[C@]2(C)[C@H](C)CC[C@]3(CCC(=O)[C@H]32)[C@@H](C)[C@@H]1O number=0.5
smiles_representation=C=C[C@]1(C)C[C@@H](OC(=O)CSC(C)(C)CNC(=O)c2ccccc2C)[C@]2(C)[C@H](C)CC[C@]3(CCC(=O)[C@H]32)[C@@H](C)[C@@H]1O number=2
smiles_representation=C=C[C@]1(C)C[C@@H](OC(=O)CSC(C)(C)CNC(=O)c2ccccc2OC)[C@]2(C)[C@H](C)CC[C@]3(CCC(=O)[C@H]32)[C@@H](C)[C@@H]1O number=4
smiles_representation=C=C[C@]1(C)C[C@@H](OC(=O)CSC(C)(C)CNC(=O)OCc2ccccc2)[C@]2(C)[C@H](C)CC[C@]3(CCC(=O)[C@H]32)[C@@H](C)[C@@H]1O number=32
smiles_representation=C=C[C@]1(C)C[C@@H](OC(=O)CSC(C)(C)CNC(=O)c2cccc(C)c2)[C@]2(C)[C@H](C)CC[C@]3(CCC(=O)[C@H]32)[C@@H](C)[C@@H]1O number=8
smiles_representation=C=C[C@]1(C)C[C@@H](OC(=O)CSC(C)(C)CNC(=O)c2ccc(OC)cc2)[C@]2(C)[C@H](C)CC[C@]3(CCC(=O)[C@H]32)[C@@H](C)[C@@H]1O number=1
smiles_representation=C=C[C@]1(C)C[C@@H](OC(=O)CSC(C)(C)CNC(=O)[C@H](N)c2ccccc2)[C@]2(C)[C@H](C)CC[C@]3(CCC(=O)[C@H]32)[C@@H](C)[C@@H]1O number=8
smiles_representation=C=C[C@]1(C)C[C@@H](OC(=O)CSC(C)(C)CNC(=O)c2ccc(C)cc2)[C@]2(C)[C@H](C)CC[C@]3(CCC(=O)[C@H]32)[C@@H](C)[C@@H]1O number=4
smiles_representation=C=C[C@]1(C)C[C@@H](OC(=O)CSC(C)(C)CNC(=O)c2cccc(Cl)c2)[C@]2(C)[C@H](C)CC[C@]3(CCC(=O)[C@H]32)[C@@H](C)[C@@H]1O number=8
smiles_representation=C=C[C@]1(C)C[C@@H](OC(=O)CSC(C)(C)CNC(=O)c2ccc(N)cc2)[C@]2(C)[C@H](C)CC[C@]3(CCC(=O)[C@H]32)[C@@H](C)[C@@H]1O number=2
smiles_representation=C=C[C@]1(C)C[C@@H](OC(=O)CSCCN(CC)CC)[C@]2(C)[C@H](C)CC[C@]3(CCC(=O)[C@H]32)[C@@H](C)[C@@H]1O number=2
smiles_representation=C=C[C@]1(C)C[C@@H](OC(=O)CSC(C)(C)CNC(=O)c2ccc(Cl)cc2)[C@]2(C)[C@H](C)CC[C@]3(CCC(=O)[C@H]32)[C@@H](C)[C@@H]1O number=2
smiles_representation=C=C[C@]1(C)C[C@@H](OC(=O)CSC(C)(C)CNC(=O)c2ccccc2N)[C@]2(C)[C@H](C)CC[C@]3(CCC(=O)[C@H]32)[C@@H](C)[C@@H]1O number=2
smiles_representation=C=C[C@]1(C)C[C@@H](OC(=O)CSC(C)(C)CNC(=O)c2ccccc2Cl)[C@]2(C)[C@H](C)CC[C@]3(CCC(=O)[C@H]32)[C@@H](C)[C@@H]1O number=4
